target: full length G2019 human LRRK2 (Homo sapiens, UniProt Q5S007, R50H); test: Full length G2019 human LRRK2 inhibition mass spectrometry assay; conditions: LRRKtide to phospho-LRRKtide conversion, RapidFire MS, 2 mM ATP
Sequence (Q5S007 with tags, fused parts or gaps R50H): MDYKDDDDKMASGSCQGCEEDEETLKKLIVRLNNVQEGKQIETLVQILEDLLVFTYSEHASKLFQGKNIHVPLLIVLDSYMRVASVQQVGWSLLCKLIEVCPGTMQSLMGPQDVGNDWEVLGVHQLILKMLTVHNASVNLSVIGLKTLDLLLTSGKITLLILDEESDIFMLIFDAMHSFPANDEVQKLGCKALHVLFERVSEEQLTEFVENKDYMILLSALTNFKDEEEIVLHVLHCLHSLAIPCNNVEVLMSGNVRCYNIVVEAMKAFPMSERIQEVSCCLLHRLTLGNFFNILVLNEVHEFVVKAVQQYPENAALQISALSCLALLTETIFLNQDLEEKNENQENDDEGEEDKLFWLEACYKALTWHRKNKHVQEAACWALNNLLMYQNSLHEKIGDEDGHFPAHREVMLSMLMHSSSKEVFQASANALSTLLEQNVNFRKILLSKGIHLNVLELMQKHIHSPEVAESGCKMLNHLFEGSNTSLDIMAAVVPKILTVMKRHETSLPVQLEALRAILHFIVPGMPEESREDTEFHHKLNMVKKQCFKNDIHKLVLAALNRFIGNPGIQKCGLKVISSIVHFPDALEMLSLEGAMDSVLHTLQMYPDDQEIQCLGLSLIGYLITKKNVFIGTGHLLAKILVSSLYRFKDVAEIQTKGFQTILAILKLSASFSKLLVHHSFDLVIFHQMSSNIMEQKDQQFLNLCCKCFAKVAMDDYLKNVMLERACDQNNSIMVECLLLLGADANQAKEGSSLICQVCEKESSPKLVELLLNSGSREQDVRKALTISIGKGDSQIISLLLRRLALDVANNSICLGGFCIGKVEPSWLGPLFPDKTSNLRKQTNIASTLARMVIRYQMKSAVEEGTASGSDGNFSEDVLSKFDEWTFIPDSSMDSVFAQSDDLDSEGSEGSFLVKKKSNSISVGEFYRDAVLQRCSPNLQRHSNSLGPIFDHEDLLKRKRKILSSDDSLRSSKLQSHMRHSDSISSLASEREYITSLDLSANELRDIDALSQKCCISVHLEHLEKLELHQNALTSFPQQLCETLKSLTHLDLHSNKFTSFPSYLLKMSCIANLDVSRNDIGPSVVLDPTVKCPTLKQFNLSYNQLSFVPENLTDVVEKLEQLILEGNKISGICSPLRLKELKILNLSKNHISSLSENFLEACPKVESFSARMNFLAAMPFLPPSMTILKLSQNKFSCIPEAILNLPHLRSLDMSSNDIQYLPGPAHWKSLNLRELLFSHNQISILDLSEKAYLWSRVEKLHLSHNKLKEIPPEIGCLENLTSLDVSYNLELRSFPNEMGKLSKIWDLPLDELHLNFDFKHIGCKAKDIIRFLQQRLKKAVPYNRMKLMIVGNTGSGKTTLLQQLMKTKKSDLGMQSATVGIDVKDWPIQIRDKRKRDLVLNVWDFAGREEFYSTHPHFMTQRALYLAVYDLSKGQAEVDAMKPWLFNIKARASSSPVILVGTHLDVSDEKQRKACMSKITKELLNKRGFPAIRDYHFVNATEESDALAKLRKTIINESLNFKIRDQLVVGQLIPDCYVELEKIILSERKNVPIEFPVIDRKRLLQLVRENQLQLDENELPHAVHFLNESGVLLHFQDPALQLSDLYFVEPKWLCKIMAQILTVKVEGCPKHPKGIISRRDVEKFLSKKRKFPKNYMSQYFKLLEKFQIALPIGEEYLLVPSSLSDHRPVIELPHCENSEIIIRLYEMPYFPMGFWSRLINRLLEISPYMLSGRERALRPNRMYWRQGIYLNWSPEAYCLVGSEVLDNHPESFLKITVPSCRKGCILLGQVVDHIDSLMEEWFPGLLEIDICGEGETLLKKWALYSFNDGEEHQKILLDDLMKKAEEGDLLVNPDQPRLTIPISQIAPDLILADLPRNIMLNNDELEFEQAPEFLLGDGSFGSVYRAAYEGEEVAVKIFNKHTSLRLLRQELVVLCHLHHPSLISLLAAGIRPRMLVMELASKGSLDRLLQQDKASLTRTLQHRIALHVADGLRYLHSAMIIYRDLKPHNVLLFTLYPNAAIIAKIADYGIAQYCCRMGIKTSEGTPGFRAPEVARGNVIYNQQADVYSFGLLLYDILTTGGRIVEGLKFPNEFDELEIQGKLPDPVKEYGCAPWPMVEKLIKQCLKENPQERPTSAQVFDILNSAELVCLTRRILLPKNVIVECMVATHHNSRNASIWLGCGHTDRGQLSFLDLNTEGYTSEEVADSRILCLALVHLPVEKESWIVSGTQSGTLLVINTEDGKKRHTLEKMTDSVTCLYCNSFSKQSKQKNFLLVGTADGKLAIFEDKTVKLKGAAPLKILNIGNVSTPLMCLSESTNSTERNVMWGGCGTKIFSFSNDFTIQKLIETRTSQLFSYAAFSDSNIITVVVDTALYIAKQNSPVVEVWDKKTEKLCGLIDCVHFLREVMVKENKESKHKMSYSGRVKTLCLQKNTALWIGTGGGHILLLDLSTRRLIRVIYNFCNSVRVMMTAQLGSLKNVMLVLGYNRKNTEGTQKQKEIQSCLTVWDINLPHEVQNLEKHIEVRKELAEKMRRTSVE
pIC50: −log10 of the molar value.
Assay Metric: pIC50

Example cases with answers are listed next.
Documented pIC50 of Cc1c2c(nn1C1CC3CCC(C1)O3)OCCC(C)Nc1nc(ncc1Cl)N2 (single isomer, unassigned) [E250] : ≥ 5.00

Documented pIC50 of Cc1c2c(nn1C(C)(C)C(=O)O)OCCCNc1nc(ncc1Cl)N2 : ≥ 5.00

Documented pIC50 of CCOC(=O)C(C)(C)n1nc2c(c1C)Nc1ncc(Cl)c(n1)NCCCO2 : ≥ 7.00

Documented pIC50 of Cc1c2c(nn1C1CCOCC1)OCC(C)C(C)Nc1nc(ncc1Cl)N2 (single isomer, unassigned) [E33] : ≥ 5.00

Documented pIC50 of Cc1c2c(nn1C1CN(C3CCCOC3)C1)OC[C@@H](F)[C@@H](C)Nc1nc(ncc1Cl)N2 (some centres unmarked) : ≥ 7.00

Documented pIC50 of COCC1CCOc2nn(C3CCOCC3F)c(C)c2Nc2ncc(Cl)c(n2)N1 (single isomer, unassigned) [E352] : ≥ 7.00

Documented pIC50 of C=C(C)c1cnc2nc1NCCCOc1nn(C3CCOCC3)c(C)c1N2 : ≥ 5.00

Moving on to the next molecule.
Documented pIC50 of CCC1CCOc2nn(C3COC3)c(C)c2Nc2ncc(Cl)c(n2)N1 (single isomer, unassigned) [E319] : ≥ 5.00

====

Entries and their IC50
Molecular target: full length G2019 human LRRK2 (Homo sapiens, UniProt Q5S007, R50H)
Assay: Full length G2019 human LRRK2 inhibition mass spectrometry assay
Conditions: LRRKtide to phospho-LRRKtide conversion, RapidFire MS, 2 mM ATP
Method: a. Full Length G2019 Human LRRK2 Inhibition Mass Spectrometry Assay […] • 1) Compounds were dissolved in 100% DMSO at a concentration of 10 mM, and 11-point dose response curves generated using a 1 in 4 serial dilution in DMSO. […] Test plates were then analysed on an Agilent RapidFire High Throughput solid phase extraction system coupled to AB Sciex API 4000 triple quadropole mass spectrometer with the following setting: […]

Example cases with answers are listed next.
COCC1CCOc2nn(C3CCOCC3F)c(C)c2Nc2ncc(Cl)c(n2)N1 (single isomer, unassigned) [E353] tested on full length G2019 human LRRK2 (Homo sapiens, UniProt Q5S007, R50H) gave IC50: ≤ 100 nM

Cc1c2c(nn1C1CC(C)OC(C)C1)OCCC(C)Nc1nc(ncc1Cl)N2 (single isomer, unassigned) [E197] tested on full length G2019 human LRRK2 (Homo sapiens, UniProt Q5S007, R50H) gave IC50: ≤ 10000 nM

Cc1c2c(nn1C(C)C1CCOCC1)OCCC(C)Nc1nc(ncc1Cl)N2 (single isomer, unassigned) [E183] tested on full length G2019 human LRRK2 (Homo sapiens, UniProt Q5S007, R50H) gave IC50: ≤ 100 nM

Moving on to the next compound.
C[C@@H]1CCOc2nn(C3CCN(C4COC4)CC3(F)F)c(Cl)c2Nc2ncc(Cl)c(n2)N1 (single isomer, unassigned) [E445] tested on full length G2019 human LRRK2 (Homo sapiens, UniProt Q5S007, R50H) gave IC50: ≤ 100 nM
